The measurements presented in this section are drawn from patent US8815840B2.

pIC50: −log10 of the molar value.
Here's a batch of molecules along with measured pIC50 for JAK2 (Homo sapiens (Human), UniProt O60674).
Endpoint Label: pIC50

>>> recorded_value("NC(=O)c1cc(-c2cnoc2)nc2c1[nH]c1cc(C(=O)N3CCOCC3)ccc12")
6.95

a. COCCOc1ccc(-c2cc(C(N)=O)c3[nH]c4cc(N5CCOCC5)ccc4c3n2)cc1Cl
b. COc1cc(-c2cc(C(N)=O)c3[nH]c4cc(C(=O)N5CCN(C)CC5)ccc4c3c2)ccc1NC(=O)OC(C)(C)C
c. NC(=O)c1cc(-c2ccc(Cl)cc2)nc2c1[nH]c1cc(C(=O)N3CCOCC3)ccc12
d. NC(=O)c1cc(-c2ccc(CN3CCOCC3)s2)nc2c1[nH]c1cc(N3CCOCC3=O)ccc12
e. COC(=O)c1ccc2c(c1)[nH]c1c(C(N)=O)cc(-c3cccc(OC)c3)cc12
-- ask Let's sort these by pIC50, smallest first. Go ahead? // rank by listing labels in the order requested
-- reply e, b, a, c, d
(e: 6.51, b: 6.80, a: 8.22, c: 8.70, d: 9.00)

* * *

Here we list compounds with their recorded pIC50 when tested on JAK2 (Homo sapiens (Human)).
Sequence (O60674 whole entry): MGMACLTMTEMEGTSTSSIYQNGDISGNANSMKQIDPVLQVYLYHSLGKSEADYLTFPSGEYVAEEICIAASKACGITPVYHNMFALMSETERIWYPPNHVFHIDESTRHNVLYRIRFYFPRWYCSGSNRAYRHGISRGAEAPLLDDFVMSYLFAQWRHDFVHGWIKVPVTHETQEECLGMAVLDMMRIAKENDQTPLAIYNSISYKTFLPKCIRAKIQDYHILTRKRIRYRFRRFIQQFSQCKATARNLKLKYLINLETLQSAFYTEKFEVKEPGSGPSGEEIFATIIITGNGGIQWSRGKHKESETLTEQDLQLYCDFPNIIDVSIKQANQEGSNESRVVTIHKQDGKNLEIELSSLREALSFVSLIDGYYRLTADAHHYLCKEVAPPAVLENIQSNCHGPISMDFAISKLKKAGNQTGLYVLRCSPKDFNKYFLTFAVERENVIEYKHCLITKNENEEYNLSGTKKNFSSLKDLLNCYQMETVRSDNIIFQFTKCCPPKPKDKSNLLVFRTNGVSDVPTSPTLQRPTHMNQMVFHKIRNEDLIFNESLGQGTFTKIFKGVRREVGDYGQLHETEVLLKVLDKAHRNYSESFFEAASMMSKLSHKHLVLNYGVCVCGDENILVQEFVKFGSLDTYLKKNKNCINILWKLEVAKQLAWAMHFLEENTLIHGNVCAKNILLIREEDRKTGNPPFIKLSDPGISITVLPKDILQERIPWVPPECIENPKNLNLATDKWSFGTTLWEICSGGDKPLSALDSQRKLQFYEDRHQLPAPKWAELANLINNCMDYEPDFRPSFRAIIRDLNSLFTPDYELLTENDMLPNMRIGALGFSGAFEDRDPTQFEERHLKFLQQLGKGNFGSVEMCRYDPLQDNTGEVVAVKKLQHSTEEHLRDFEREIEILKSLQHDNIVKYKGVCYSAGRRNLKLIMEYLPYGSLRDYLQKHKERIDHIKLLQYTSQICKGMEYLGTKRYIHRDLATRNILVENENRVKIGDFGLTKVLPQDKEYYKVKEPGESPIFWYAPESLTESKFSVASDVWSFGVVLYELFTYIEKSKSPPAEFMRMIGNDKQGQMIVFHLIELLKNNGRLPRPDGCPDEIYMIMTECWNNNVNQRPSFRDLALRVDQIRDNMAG
pIC50: −log10 of the molar value. Counter-ions that a name gives are not always drawn.
Endpoint Label: pIC50

>>> recorded_value("Cn1nc(C(F)(F)F)cc1-c1cc(C(N)=O)c2[nH]c3cc(C(=O)N4CCOCC4)ccc3c2n1")
6.50
>>> recorded_value("CN1CCN(c2ccc(-c3cc(C(N)=O)c4[nH]c5cc(C(=O)N6CCOCC6)ccc5c4n3)cc2)CC1")
8.22
>>> recorded_value("COc1cccc(-c2cc(C(N)=O)c3[nH]c4cccnc4c3c2)c1 [Example 204, HCl]")
7.54
>>> recorded_value("NC(=O)c1cc(-c2ccc(CO)nc2)nc2c1[nH]c1cc(N3CCOCC3)ccc12")
8.22

I. NC(=O)c1cc(-c2ccc(F)c(Cl)c2)cc2c1[nH]c1cc(C(=O)N3CCOCC3)ccc12
II. NC(=O)c1cc(-c2ccc(CN3CCOCC3)c(Cl)c2)cc2c1[nH]c1cc(-c3cccnc3)ccc12
III. Cc1cc(-c2cc(C(N)=O)c3[nH]c4cc(N5CCOCC5)ccc4c3n2)ccc1Cl
-- ask Sort low-to-high on pIC50, please. Answer format: the labels, in the requested order.
-- reply I, II, III

a. NC(=O)c1cc(-c2ccc(CN3CCOCC3)s2)nc2c1[nH]c1cc(N3CCOCC3)ccc12
b. COc1ccc(-c2cc(C(N)=O)c3[nH]c4nc(OC)ccc4c3n2)cc1
-- ask Looking only at measured pIC50, which entry is lower, a or b ? // respond with label for picked entry
-- reply b
(b: 6.96, a: 9.00)

I. COc1ccc(-c2cc(C(N)=O)c3[nH]c4ccc(C(=O)N5CCOCC5)cc4c3c2)cc1OC
II. COc1ccc(-c2nc(C(N)=O)c3[nH]c4cc(OC)ccc4c3n2)cc1
-- ask Higher pIC50 between I and II ? Indicate which entry you chose by stating its label.
-- reply I
(I: 8.22, II: 6.77)

P. CC(C)(C)N1CCN(Cc2ccc3c(c2)[nH]c2c(C(N)=O)cc(-c4cccc(Cl)c4)nc23)CC1
Q. COc1ccc(-c2cc(C(N)=O)c3[nH]c4cc(C(=O)O)ccc4c3c2)cc1F
R. COc1cccc(-c2cc(C(N)=O)c3[nH]c4ccncc4c3c2)c1 [Example 203, HCl]
-- ask Please put the entries in order of rising pIC50. List the labels according to the requested ordering.
-- reply Q, R, P
(Q: 6.95, R: 7.47, P: 9.00)
